System: E. cloacae P99 (AmpC)
Assay Text: MIC of compounds alone, broth microdilution
Type: cell-based
Assay Context: Enterobacter cloacae; strain P99 (E. cloacae); read-out: MIC compounds of the invention alone
Examples of molecules with documented MIC follow.
Quick reminder: number only, in µg/mL, skip the unit.

For orientation, consider the following solved cases.
{"Molecule": "Cn1cc(C2=CCN3CC2N(OS(=O)(=O)[O-])C3=O)cnc1=O.[Na+] (stereo not drawn)", "Quantity Kind": "MIC", "Unit Symbol": "µg/mL", "Measured": 2}
{"Molecule": "O=C1N2CC(n3ccnc3)=CC(C2)N1OS(=O)(=O)[O-].[Na+] (stereo not drawn)", "Quantity Kind": "MIC", "Unit Symbol": "µg/mL", "Measured": 8}
{"Molecule": "Cn1ncc(C2=CCN3CC2N(OS(=O)(=O)[O-])C3=O)cc1=O.[Na+] (stereo not drawn)", "Quantity Kind": "MIC", "Unit Symbol": "µg/mL", "Measured": 8}
{"Molecule": "O=C1N2CC=C(c3cncnc3)C(C2)N1OS(=O)(=O)[O-].[Na+] (stereo not drawn)", "Quantity Kind": "MIC", "Unit Symbol": "µg/mL", "Measured": 16}
{"Molecule": "O=C1N2CC(c3cnoc3)=CC(C2)N1OS(=O)(=O)[O-].[Na+] (stereo not drawn)", "Quantity Kind": "MIC", "Unit Symbol": "µg/mL", "Measured": 8}
{"Molecule": "NCc1cnc(C2=CC3CN(C2)C(=O)N3OS(=O)(=O)O)s1 (stereo not drawn)", "Quantity Kind": "MIC", "Unit Symbol": "µg/mL", "Measured": 4}
{"Molecule": "O=C1N2CC(c3ncco3)=C[C@H](C2)N1OS(=O)(=O)[O-].[Na+]", "Quantity Kind": "MIC", "Unit Symbol": "µg/mL", "Measured": 4}
{"Molecule": "Cn1cc(C2=CCN3CC2N(OS(=O)(=O)[O-])C3=O)ncc1=O.[Na+] (stereo not drawn)", "Quantity Kind": "MIC", "Unit Symbol": "µg/mL", "Measured": 8}
{"Molecule": "O=C1N2CC=C(c3cscn3)C(C2)N1OS(=O)(=O)[O-].[Na+] (stereo not drawn)", "Quantity Kind": "MIC", "Unit Symbol": "µg/mL", "Measured": 16}
{"Molecule": "O=C1N2CC=C(c3ccns3)C(C2)N1OS(=O)(=O)[O-].[Na+] (stereo not drawn)", "Quantity Kind": "MIC", "Unit Symbol": "µg/mL", "Measured": 8}

Please look at the following molecule next.
Prompt: Answer with the recorded MIC of Cn1ccc(C2=CCN3CC2N(OS(=O)(=O)[O-])C3=O)cc1=O.[Na+] (stereo not drawn) only.
Response: 16

----------
Study System: OXA-11 (Pseudomonas aeruginosa)
Construct: made in house; host or cells: E. coli
Sequence (Q06778 21-266): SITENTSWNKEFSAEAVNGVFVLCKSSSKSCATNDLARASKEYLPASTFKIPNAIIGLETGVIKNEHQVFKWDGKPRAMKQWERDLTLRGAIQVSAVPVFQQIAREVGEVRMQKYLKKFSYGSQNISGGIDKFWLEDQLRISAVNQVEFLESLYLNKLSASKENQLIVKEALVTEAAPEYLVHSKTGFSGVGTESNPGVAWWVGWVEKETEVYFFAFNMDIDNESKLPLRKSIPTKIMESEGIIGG
Assay Text: β-lactamase inhibitory activity, determination of IC50 (nitrocefin hydrolysis)
Format: biochemical
Examples of compounds with documented IC50 follow.
Quick reminder: number only, in nM, skip the unit.

For orientation, consider the following solved cases.
{"Compound": "O=C1N2CC(c3cccnc3)=CC(C2)N1OS(=O)(=O)[O-].[Na+] (centres unmarked)", "Measured": 840}
{"Compound": "O=C1N2CC(c3ncco3)=CC(C2)N1OS(=O)(=O)[O-].[Na+] (centres unmarked)", "Measured": 190}
{"Compound": "O=C1N2CC=C(c3ncco3)C(C2)N1OS(=O)(=O)[O-].[Na+] (centres unmarked)", "Measured": 800}
{"Compound": "Cn1cc(C2=CCN3CC2N(OS(=O)(=O)[O-])C3=O)cnc1=O.[Na+] (centres unmarked) [Example 15, sulfate]", "Measured": 2600}

Please look at the following compound next.
Prompt: Answer with the recorded IC50 of O=C1N2CC=C(c3cccnc3)C(C2)N1OS(=O)(=O)[O-].[Na+] (centres unmarked) only.
Response: 730
